- Measurement Target: T1, recombinant human IL4Rα-his protein (in house made) (human, UniProt P24394 26-232, limits assumed)
- T1 construct: also called Human IL4Ra-his
- Experiment: SPR (Biacore), antibody captured, IL4Rα-his flowed
// values below are reported Kd
Provide the reading as a plain figure in nM.

// known answers, use as guide
*Q* Which Kd value belongs to huB8G11F2B7G5E8-V1 (antibody, human IgG4 S228P, kappa, V domains shown, Humanized, human IgG4/kappa; also called huBSG11F2B7G5E8-V1) VH: EVQLVQSGAEVKKPGATVKISCKASGFNIKDTYMHWVKQAPGKGLEWVGRIDPTNGYTIYASKFQGKATITADTSSNTAYMELSSLRSEDTAVYHCVSRRPWFAYWGQGTLVTVSS VL: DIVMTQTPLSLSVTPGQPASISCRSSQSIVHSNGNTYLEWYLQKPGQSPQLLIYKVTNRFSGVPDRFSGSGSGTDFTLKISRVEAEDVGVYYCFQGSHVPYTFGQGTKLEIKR ?
*A* 3.73

*Q* Which Kd value is on record for huB8G11F2B7G5E8-V3 (antibody, human IgG4 S228P, kappa, V domains shown, Humanized, human IgG4/kappa; also called huBSG11F2B7G5E8-V3) VH: EVQLVQSGAEVKKPGATVKISCKASGFNIKDTYMHWVQQAPGKGLEWVGRIDPTNGYTIYASKFQGKATITADTSSNTAYMELSSLRSEDTAVYHCVSRRPWFAYWGQGTLVTVSS VL: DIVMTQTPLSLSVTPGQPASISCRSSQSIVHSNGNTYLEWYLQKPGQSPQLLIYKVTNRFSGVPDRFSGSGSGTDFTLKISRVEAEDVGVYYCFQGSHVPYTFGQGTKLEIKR ?
*A* 3.57

Let us examine a further case.
*Q* Any idea what its Kd is? The binder is huB8G11F2B7G5E8-V7 (antibody, human IgG4 S228P, kappa, V domains shown, Humanized, human IgG4/kappa; also called huBSG11F2B7G5E8-V7) VH: EVQLVQSGAEVKKPGATVKISCKASGFNIKDTYMHWVKQAPGKGLEWVGRIDPTNGYTIYASKFQGKATITADTSTNTAYMELSSLRSEDTAVYHCVSRRPWFAYWGQGTLVTVSS VL: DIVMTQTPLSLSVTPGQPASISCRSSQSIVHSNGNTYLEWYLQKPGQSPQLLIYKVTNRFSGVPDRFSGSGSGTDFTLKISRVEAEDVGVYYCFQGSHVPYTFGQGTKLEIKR
*A* 3.75
